system: Escherichia coli; assay: Minimum inhibition concentration against Escherichia coli NIHJ JC-2 strain; format: functional
For each of the molecules below, state its log10 MIC.
Heads up: the numbers are on a log10 scale; they represent MIC in µg/mL.

Some solved entries appear below for comparison.
* NCC1CN(c2c(F)cc3c(=O)c(C(=O)O)cn(CCF)c3c2F)CCO1 (stereo not given) | 0.80
* CC1COc2c(N3CCN(C)CC3)c(F)cc3c(=O)c(C(=O)O)cn1c23 (stereo not given) [OFLOXACIN] | -1.00
* NCC1CN(c2cc3c(cc2F)c(=O)c(C(=O)O)cn3C2CC2)CCO1 (stereo not given) | -0.70
* NCCC1CN(c2c(F)cc3c(=O)c(C(=O)O)cn(C4CC4)c3c2F)CCO1 (stereo not given) | 0.19
* CC(=O)NCC1CN(c2c(F)cc3c(=O)c(C(=O)O)cn(C4CC4)c3c2F)CCO1 (stereo not given) | 0.19

Dear colleague, could you send me log10 MIC for each of the items below? Thanks.
1. NCC1CN(c2c(F)cc3c(=O)c(C(=O)O)cn(C4CC4)c3c2F)CCCO1 (stereo not given)
2. CNCC1CN(c2c(F)cc3c(=O)c(C(=O)O)cn(C4CC4)c3c2F)CCO1 (stereo not given)
3. CCn1cc(C(=O)O)c(=O)c2cc(F)c(N3CCNCC3)cc21 [NORFLOXACIN]
4. NCC1CN(c2c(F)cc3c(=O)c(C(=O)O)cn(C4CC4)c3c2F)CCO1 (stereo not given)

Solution:
1: -0.41; 2: -1.00; 3: -1.00; 4: -1.00

Input O=C(O)c1cn(C2CC2)c2c(F)c(N3CCOC(CN4CCCCC4)C3)c(F)cc2c1=O (stereo not given) . Output log10 MIC: 0.50

---

biological target: GABA-A receptor; anion channel; assay: Inhibition of [3H]muscimol binding to GABA A receptor 4-biphenylacetic acid at 10 e-4 M; type: protein-complex assay; details: read-out: IC50
For each of the compounds below, state its IC50.

Some solved entries appear below for comparison.
* CN(C)CC1CN(c2c(F)cc3c(=O)c(C(=O)O)cn(C4CC4)c3c2F)CCO1 (centres undefined) | > 100 µM
* NCC1CN(c2cc3c(cc2F)c(=O)c(C(=O)O)cn3C2CC2)CCO1 (centres undefined) | > 100 µM
* CC1COc2c(N3CCN(C)CC3)c(F)cc3c(=O)c(C(=O)O)cn1c23 (centres undefined) | 11 µM
* CCn1cc(C(=O)O)c(=O)c2cc(F)c(N3CCOC(CN)C3)c(F)c21 (centres undefined) | > 100 µM
* CNCC1CN(c2c(F)cc3c(=O)c(C(=O)O)cn(C4CC4)c3c2F)CCO1 (centres undefined) | > 100 µM

Dear colleague, could you send me IC50 for each of the items below? Thanks.
1. O=C(O)c1cn(C2CC2)c2c(F)c(N3CCNCC3)c(F)cc2c1=O
2. NCC1CN(c2c(F)cc3c(=O)c(C(=O)O)cn(C4CC4)c3c2F)CCO1 (centres undefined)
3. CCn1cc(C(=O)O)c(=O)c2cc(F)c(N3CCNCC3)cc21
4. O=C(O)c1cn(C2CC2)c2c(F)c(N3CCOCC3)c(F)cc2c1=O

Solution:
0.12 µM
> 100 µM
0.02 µM
> 100 µM
